# Test system: AsojAgdL
# Test details: glucose release
# Assay type: biochemical, Aspergillus sojae
# Condition summary: 20 mM MES pH 6.0, 40 °C, 60 min
Recorded metric: Km (µM)

{"Molecule": "OC[C@H]1O[C@H](OC[C@H]2O[C@H](OC[C@H]3O[C@H](OC[C@H]4O[C@H](OC[C@H]5O[C@H](OC[C@H]6OC(O)[C@H](O)[C@@H](O)[C@@H]6O)[C@H](O)[C@@H](O)[C@@H]5O)[C@H](O)[C@@H](O)[C@@H]4O)[C@H](O)[C@@H](O)[C@@H]3O)[C@H](O)[C@@H](O)[C@@H]2O)[C@H](O)[C@@H](O)[C@@H]1O (stereo partly drawn)", "Unit tag": "µM", "Assay result": 1100}

a: OC[C@H]1O[C@H](OC[C@H]2O[C@H](OC[C@H]3OC(O)[C@H](O)[C@@H](O)[C@@H]3O)[C@H](O)[C@@H](O)[C@@H]2O)[C@H](O)[C@@H](O)[C@@H]1O (stereo partly drawn)
b: OC[C@H]1O[C@H](O[C@H]2C(O)O[C@H](CO)[C@@H](O)[C@@H]2O)[C@H](O)[C@@H](O)[C@@H]1O (stereo partly drawn)
Qu. Pick one: a or b . Which one has the lower reported Km? Return value: the label identifying the chosen record.
Ans. a
(a: 500 µM, b: 2100 µM)

====

# Tested on: AsojAgdL
# Test details: glucose release
# Format: biochemical, Aspergillus sojae
# Condition summary: 20 mM MES pH 6.0, 40 °C, 60 min
Recorded metric: Km (µM)

{"Compound": "OC[C@H]1O[C@H](OC[C@H]2O[C@H](OC[C@H]3O[C@H](OC[C@H]4O[C@H](OC[C@H]5OC(O)[C@H](O)[C@@H](O)[C@@H]5O)[C@H](O)[C@@H](O)[C@@H]4O)[C@H](O)[C@@H](O)[C@@H]3O)[C@H](O)[C@@H](O)[C@@H]2O)[C@H](O)[C@@H](O)[C@@H]1O (some centres unmarked) [Isomaltopentaose]", "Unit tag": "µM", "Km": 900}
{"Compound": "OC[C@H]1O[C@H](OC[C@H]2OC(O)[C@H](O)[C@@H](O)[C@@H]2O)[C@H](O)[C@@H](O)[C@@H]1O (some centres unmarked) [Isomaltose]", "Unit tag": "µM", "Km": 2000}
{"Compound": "OC[C@H]1O[C@H](O[C@H]2[C@H](O)[C@@H](CO)OC(O)[C@@H]2O)[C@H](O)[C@@H](O)[C@@H]1O (some centres unmarked) [Nigerose]", "Unit tag": "µM", "Km": 2500}
{"Compound": "OC[C@H]1O[C@H](O[C@H]2[C@H](O)[C@@H](O)C(O)O[C@@H]2CO)[C@H](O)[C@@H](O)[C@@H]1O (some centres unmarked) [Maltose]", "Unit tag": "µM", "Km": 2200}
{"Compound": "OC[C@H]1O[C@H](OC[C@H]2O[C@H](OC[C@H]3O[C@H](OC[C@H]4OC(O)[C@H](O)[C@@H](O)[C@@H]4O)[C@H](O)[C@@H](O)[C@@H]3O)[C@H](O)[C@@H](O)[C@@H]2O)[C@H](O)[C@@H](O)[C@@H]1O (some centres unmarked) [Isomaltotetraose]", "Unit tag": "µM", "Km": 2400}

Data credit: paper PMC8114154
